From: patent US5965578A

- assay.target: human FPTase (Homo sapiens, UniProt P49354+P49356)
- Construct: made in house
- protocol.description: In vitro inhibition of ras farnesyl transferase (human FPTase assay)
- Format: biochemical
pIC50: −log10 of the molar value. Where a name gives a salt, the structure may show the parent alone.
property.measured: pIC50

Task: Could you tell me which pIC50 is on file for N#Cc1ccc(Cc2cncn2CC2CCN(c3ccccc3)C(=O)C2)cc1 (stereo not shown) [Example 1, hydrochloride] ?
Result: ≥ 5.00
